Assay: Solubility of compounds (II), (III) and (IV) compared with products (a) and (b)
Settings: DPBS or water, aqueous buffer
Reported solubility values follow for various compounds

SMILES REPR	solubility
COc1cccc2c1C(=O)c1c(O)c3c(c(O)c1C2=O)C[C@@](O)(/C(CO)=N/NC(=S)NNCc1cccc(OCCCN(C)CCC(O)(P(=O)(O)O)P(=O)(O)O)c1)C[C@@H]3O[C@H]1C[C@H](N)[C@H](O)[C@H](C)O1	~160 mM
COc1cccc2c1C(=O)c1c(O)c3c(c(O)c1C2=O)C[C@@](O)(/C(CO)=N/OCC(O)(P(=O)(O)O)P(=O)(O)O)C[C@@H]3O[C@H]1C[C@H](N)[C@H](O)[C@H](C)O1	~315 mM
COc1cccc2c1C(=O)c1c(O)c3c(c(O)c1C2=O)C[C@@](O)(/C(CO)=N/NC(=S)NNC(=O)CN(CCN(CC(=O)O)CC(=O)NNC(=S)N/N=C/c1cccc(OCCCN(C)CCC(O)(P(=O)(O)O)P(=O)(O)O)c1)CC(=O)O)C[C@@H]3O[C@H]1C[C@H](N)[C@H](O)[C@H](C)O1	~255 mM
